- EXPERIMENT SUMMARY: Proposed mechanism(s) of liver damage. [column 'MEC' in source]
- ASSAY CONTEXT: human, Liver
ENDPOINT: Hepatotoxicity (mechanism)

Worked cases, answers included:
- COMPOUND: "O=C1CN(/N=C/c2ccc([N+](=O)[O-])o2)C(=O)N1"
  EXPERIMENTAL RESULT: "Allergic"
- COMPOUND: "COc1cc([C@@H]2c3cc4c(cc3[C@@H](O[C@@H]3O[C@@H]5CO[C@@H](C)O[C@H]5[C@H](O)[C@H]3O)[C@H]3COC(=O)[C@H]23)OCO4)cc(OC)c1O [ETOPOSIDE]"
  EXPERIMENTAL RESULT: "Dose-dependant"
- COMPOUND: "CCc1cc(C(N)=S)ccn1 [ETHIONAMIDE]"
  EXPERIMENTAL RESULT: "Allergic"
- COMPOUND: "Clc1ccccc1CN1CCc2sccc2C1"
  EXPERIMENTAL RESULT: "Allergic"
- COMPOUND: "CC1=C(/C=C/C(C)=C/C=C/C(C)=C/CO)C(C)(C)CCC1"
  EXPERIMENTAL RESULT: "Dose-dependant"
- COMPOUND: "O=P1(N(CCCl)CCCl)NCCCO1 (centres undefined) [CYCLOPHOSPHAMIDE ANHYDROUS]"
  EXPERIMENTAL RESULT: "Dose-dependant"
- COMPOUND: "Sc1ncnc2nc[nH]c12 [MERCAPTOPURINE ANHYDROUS]"
  EXPERIMENTAL RESULT: "Dose-dependant"

Kindly review the next compound as well.
Report Hepatotoxicity (mechanism) for "OC(Cn1cncn1)(Cn1cncn1)c1ccc(F)cc1F"
Dose-dependant

###

- ASSAY CONTEXT: human, serum
*1 amine or outer side, *2 acyl side, *3 side chain or, on linkers, in order; H or OH if unused. Where a SMILES comes first, the peptide text is derived from it. Bridges are numbered along the chain shown (N, C = ends). Roman numbers before positions name the chains, in order. [ ]: non-standard residue; d: D form. Actinocin(9to1) = Cc1c2oc3c(C)ccc(C(=O)[*:1])c3nc-2c(C(=O)[*:2])c(N)c1=O; NMeV = CN[C@H](C(=O)O)C(C)C; Sar = CNCC(=O)O
ENDPOINT: Hepatotoxicity (acute)
# answer = number (no unit)

Worked cases, answers included:
- MOLECULE: "CN1c2c(oc(=O)n(-c3ccccn3)c2=O)-c2ccccc2S1(=O)=O"
  ENDPOINT: "Hepatotoxicity (acute)"
  EXPERIMENTAL RESULT: 7
- MOLECULE: "CC(C)NCC(O)c1ccc(NS(C)(=O)=O)cc1 (stereo not drawn)"
  ENDPOINT: "Hepatotoxicity (acute)"
  EXPERIMENTAL RESULT: 1
- MOLECULE: "CC[C@]1(O)C[C@@H]2CN(CCc3c([nH]c4ccccc34)[C@@](C(=O)OC)(c3cc4c(cc3OC)N(C)[C@H]3[C@@](O)(C(=O)OC)[C@H](OC(C)=O)[C@]5(CC)C=CCN6CC[C@]43[C@@H]65)C2)C1"
  ENDPOINT: "Hepatotoxicity (acute)"
  EXPERIMENTAL RESULT: 1

Report Hepatotoxicity (acute) for CN(C)CC/C=C1\c2ccccc2CSc2ccccc21 [DOTHIEPIN]
3

Report Hepatotoxicity (acute) for "COc1ccc(/C=C/C(=O)Nc2ccccc2C(=O)O)cc1OC"
1

Report Hepatotoxicity (acute) for CC(=O)OCC(=O)NCCCOc1cccc(CN2CCCCC2)c1 [ROXATIDINE ACETATE]
1

Report Hepatotoxicity (acute) for "Cc1onc(-c2c(F)cccc2Cl)c1C(=O)N[C@@H]1C(=O)N2[C@@H]1SC(C)(C)[C@@H]2C(=O)O"
26

Report Hepatotoxicity (acute) for "CC1(C)S[C@@H]2[C@H](NC(=O)[C@H](C(=O)O)c3ccsc3)C(=O)N2[C@H]1C(=O)O.O=C(O)[C@H]1/C(=C/CO)O[C@@H]2CC(=O)N21"
2

Report Hepatotoxicity (acute) for Cc1c2oc3c(C)ccc(C(=O)N[C@@H]4C(=O)N[C@H](C(C)C)C(=O)N5CCC[C@H]5C(=O)N(C)CC(=O)N(C)[C@@H](C(C)C)C(=O)O[C@@H]4C)c3nc-2c(C(=O)N[C@@H]2C(=O)N[C@H](C(C)C)C(=O)N3CCC[C@H]3C(=O)N(C)CC(=O)N(C)[C@@H](C(C)C)C(=O)O[C@@H]2C)c(N)c1=O [DACTINOMYCIN] (I: T[dV]P[Sar][NMeV] / II: T[dV]P[Sar][NMeV]; ester I:1-I:C, II:1-II:C; linker I:N-II:N via Actinocin(9to1))
7

Report Hepatotoxicity (acute) for COCCCOc1ccnc(C[S+]([O-])c2nc3ccccc3[nH]2)c1C (stereo not drawn)
1

Report Hepatotoxicity (acute) for "CC1(C)S[C@@H]2[C@H](NC(=O)[C@H](N)c3ccc(O)cc3)C(=O)N2[C@H]1C(=O)O.O=C(O)[C@H]1/C(=C/CO)O[C@@H]2CC(=O)N21"
74

Report Hepatotoxicity (acute) for "CO[C@@]1(NC(=O)CSC[C@@H](N)C(=O)O)C(=O)N2C(C(=O)O)=C(CSc3nnnn3C)CS[C@@H]21"
2

Report Hepatotoxicity (acute) for CCCN[C@H]1CCc2nc(N)sc2C1 [PRAMIPEXOLE]
0
